Each entry below lists one item and its recorded Mean normalized OD value.
SUBJECT OF TEST: T1, human recombinant soluble ACE2 (human, UniProt Q9BYF1 18-740)
T1 construct: also called hrsACE2
RUN DESCRIPTION: ELISA screen
REPORTED PROPERTY: Mean normalized OD (OD)

{"BINDER": "Clec2d CRD-mouse IgG2a-Fc fusion protein (Fc fusion) VENKCFYFSEYPSNWTFAQAFCMAQEAQLARFDNQDELNFLMRYKANFDSWIGLHRESSEHPWKWTDNTEYNNTIPIRGEERFAYLNNNGISSTRIYSLRMWICSKLNSYSLHCQTGGGSGGGSGGGS", "U": "OD", "REPORTED VALUE": -0.506}
{"BINDER": "Reg3a CRD-mouse IgG2a-Fc fusion protein (Fc fusion) YRSHCYALVMTPKSWFQADLVCQKRPSGHLVSILSGGEASFVSSLVNGRVDNYQDIWIGLHDPTMGQQPNGGGWEWSNSDVLNYLNWDGDPSSTVNRGHCGSLTASSGFLKWGDYYCDGTLPFVCKGGGSGGGSGGGS", "U": "OD", "REPORTED VALUE": -0.132}
{"BINDER": "Frem1 CRD-mouse IgG2a-Fc fusion protein (Fc fusion) HSGYCHILVTRQKGTWTTATRACREQHQGDLVTVLSRRHMQWLWAMSGRKPFWIGLKNQPRTGHWEWIGGEPVAFTNWRRGAPLHPKPGKNCALVQKRGQWQTKNCSKGKAHNFVGGGSGGGSGGGS", "U": "OD", "REPORTED VALUE": 0.028}
